Assay Target: T1, HLA-DQ2.5/omega 2 gliadin peptide complex on Ba/F3 cells (human; wheat)
T1 construct: also called Ba/F3-HLA-DQ2.5/omega 2 gliadin peptide
Assay Summary: FACS
Below: a set of entries, each annotated with reported FIG. 30 FACS value (IC17=0, DQN0139bb=100).
Please give the numeric answer without any surrounding text.

# Binder, Measurement
records = [
    ("DQN0324hh (antibody, human IgG1, kappa, V domains shown, also called DQN0324Lh) VH: QSLEESGGDLVKPGASLALTCTASGFSLINNYYMCWVRQAPGKGLEWIACIYAGLGGWTYYASWAKGRFTISKTSSTTVTLQMSSLTVADAATYFCARAATTYYHFNLWGPGTLVTVSS VL: AVVLTQTESPVSAAVGDTVTIKCQASQSIGNALAWYQQKPGQPPKLLIYDASTLASGVPSRFKGSGSGTQFTLTISDLECADAATYYCQSYDYGSSADTYTFGGGTKVEIKR", 79.4),
    ("DQN0225dd (antibody, human IgG1, kappa, V domains shown, also called DQN0225Hd; DQN0225Ld) VH: QSLEESGGGLVKPGGTLTLTCTASGFSFSSAYYMCWVRQAPGKGLEWIACIYVGSGSTYYASWAQGRCTISKASSTTVTLQMTSLTAADTATYFCARDPLIYYYYGELNLWGPGTLVTVSS VL: AVVLTQTASPVSAPVGGTVTIKCQASEDISSNLAWYQQKPGQRPKVLIYSASTLASGVSSQFKGSGSGTQFTLTISDLECADAATYYCQSYYDISSVTFGGGTKVEIKR", 62),
    ("DQN0333hh (antibody, human IgG1, kappa, V domains shown, also called DQN0333Lh) VH: QSVEESGGRLVMPGGSLTLTCTASGFSLSSYYMNWVRQAPGKGLEWIGVIYSTDITDYATWATGRFTISKTSTTVDLKMTSLTAADTATYFCARELSPTTSGYIAYLWGPGTLVTVSS VL: AYDMTQTPASVEVAVGGTVTIKCQASQSISSYLAWYQQKPGQPPKLLIYSASTLASGVPSRFKGSGSGTQFTLTVIDVQCDDAATYYCQQTYSGKNVINTFGGGTKVEIKR", 128),
]

Attention now turns to another entry.
-- ask Request the reported FIG. 30 FACS value (IC17=0, DQN0139bb=100) associated with DQN0282ff (antibody, human IgG1, kappa, V domains shown, also called DQN0282Hf; DQN0282Lf) VH: QSVEESGGRLVTPGTPLTLSCKASGFDFSIYYMSWVRQAPGKGLEWIGVINSGGGVTWYASWVKGRFTISKTSTTVDLKITSPTTEDTATYFCARLGDSNHYDLWGPGTLVTVSS VL: AYDMTQTPSSVSAAVGGTVTIKCQASETISSYLAWYQQKPGQRPQLLIYDASNLASGVPSRFKGSGSGTEFTLTISDLECADAATYYCQTHYYITSTTFGGGTKVEIKR
-- reply 42.6
